// reported viability at 3 days, 1 µM for each item listed
test.protocol: Cytotoxicity, cell viability by tetrazolium dye assay (XTT assay)
Assay type: cell-based
conditions: human, HeLa cells, 1 µM, read-out: Viability of treated HeLa cells relative to control cells
I only need the number, in %, no unit after it.

| compound | unit.string | numeric.value |
| --- | --- | --- |
| N#Cc1c(-c2ccccc2)[nH]c2c(I)cccc12 | % | 97 |
| CN[C@@H]1C[C@H]2O[C@@](C)([C@@H]1OC)n1c3ccccc3c3c4c(c5c6ccccc6n2c5c31)C(=O)NC4 [Staurosporine, reference compound] | % | 20 |
| N#Cc1c(C2CCCC2)[nH]c2c(I)cccc12 | % | 99 |
| O=C(O)c1nc2ccccc2c2[nH]c3c(I)cccc3c12 [KuFal194 (5), reference compound] | % | 78 |

Lab note: measured viability at 3 days, 1 µM of N#Cc1cn(Cc2ccccc2)c2c(Br)cccc12 [Compound 13b] was 94

viability at 3 days, 1 µM measured on `N#Cc1c(-c2ccccc2)[nH]c2c(Cl)cccc12` = 94
